Each entry below lists one item and its recorded Bliss excess value.
System: SiHa (Cervical Carcinoma)
Assay: Bliss excess, mean over the matrix (fraction); higher = more synergy

Here is how some compounds turned out for Bliss excess.
C=CCn1c(=O)c2cnc(Nc3ccc(N4CCN(C)CC4)cc3)nc2n1-c1cccc(C(C)(C)O)n1 [AZD1775] + O=C(c1cc(Cc2n[nH]c(=O)c3ccccc23)ccc1F)N1CCN(C(=O)C2CC2)CC1 [Olaparib] (first compound max 1 µM, partner max 10 µM); -0.0444
C[C@@H]1COCCN1c1cc(C2([S@](C)(=N)=O)CC2)nc(-c2ccnc3[nH]ccc23)n1 [AZD6738] + O=C(c1cc(Cc2n[nH]c(=O)c3ccccc23)ccc1F)N1CCN(C(=O)C2CC2)CC1 [Olaparib] (first compound max 10 µM, 7x7, partner max 10 µM); 0.0106

Request: # return recorded Bliss excess for entry CC1(C)CCC(CN2CCN(c3ccc(C(=O)NS(=O)(=O)c4ccc(NCC5CCOCC5)c([N+](=O)[O-])c4)c(Oc4cnc5[nH]ccc5c4)c3)CC2)=C(c2ccc(Cl)cc2)C1 [Venetoclax] + CCN(CCO)CCCOc1ccc2c(Nc3cc(CC(=O)Nc4cccc(F)c4)[nH]n3)ncnc2c1 [AZD2811] (first compound max 1 µM, 7x7, partner max 1 µM)
Result: -0.0107

---

Catalogue of Bliss excess readings, one per entry.
Test system: PA-TU-8988T (Pancreatic Carcinoma)
Test: Bliss excess, mean over the matrix (fraction); higher = more synergy
Write the value as a bare number.

Cc1c2c(nn1C)CSCc1cc(n(C)n1)CSc1cc(c3ccccc3c1)OCCCc1c(C(=O)O)n(C)c3c-2c(Cl)ccc13 [AZD5991] + C[C@@H]1COCCN1C2=NC(=NC(=C2)C3(CC3)[S@](=N)(=O)C)C4=C5C=CNC5=NC=C4 [AZD6738] (first compound max 1 µM, 7x7, partner max 10 µM); 0.0151
COc1cccc(OCCCN)c1-c1cc(Nc2cnc(C#N)cn2)n[nH]1 [Prexasertib] + CCc1c2c(nc3ccc(O)cc13)-c1cc3c(c(=O)n1C2)COC(=O)[C@]3(O)CC [SN-38] (first compound max 1 µM, 7x7, partner max 0.3 µM); 0.167
CCc1c2c(nc3ccc(O)cc13)-c1cc3c(c(=O)n1C2)COC(=O)[C@]3(O)CC [SN-38] + CN(C)CCCOc1ccc(-c2ccc3ncc4c(c3c2)n(C2CCOCC2)c(=O)n4C)cn1 [AZD0156] (first compound max 0.3 µM, 7x7, partner max 1 µM); 0.0755

API: the following record is the query input.
Request: Give the measured Bliss excess for Cn1cnc2c(F)c(Nc3ccc(Br)cc3Cl)c(C(=O)NOCCO)cc21 [Selumetinib] + CC(C)n1c(=O)n(C)c2cnc3cc(F)c(-c4ccc(OCCCN5CCCCC5)nc4)cc3c21 [AZD1390] (first compound max 10 µM, 7x7, partner max 0.3 µM)
Result: -0.0269

---

Test system: NCI-H1876 (Small Cell Lung Carcinoma)
Test: combination Emax (second highest fraction inhibited in the dose matrix, 72 h); higher = more inhibition; extreme values may be limits of the assay
MEASUREMENT TYPE: combination Emax
Just the number, please.

Request: Item COc1cc2c(cc1OCCCCCOc1cc3c(cc1OC)C(=O)N1C=C(C)C[C@H]1C=N3)N=C[C@@H]1CC(C)=CN1C2=O [SG3199] + O=C(c1cc(Cc2n[nH]c(=O)c3ccccc23)ccc1F)N1CCN(C(=O)C2CC2)CC1 [Olaparib] (first compound max 0.001 µM, 7x7, partner max 10 µM) : provide combination Emax
Result: 0.7

---

System: CPC-N (Small Cell Lung Carcinoma)
Assay: Bliss excess, mean over the matrix (fraction); higher = more synergy
Think of -0.005 as a floor: if Bliss excess stands on it or above, it is Satisfied; beneath it, Not satisfied.

Reference set, count: 6
NC1(C(=O)N[C@@H](CCO)c2ccc(Cl)cc2)CCN(c2ncnc3[nH]ccc23)CC1 [Capivasertib] + CC(C)n1c(=O)n(C)c2cnc3cc(F)c(-c4ccc(OCCCN5CCCCC5)nc4)cc3c21 [AZD1390] (first compound max 10 µM, 7x7, partner max 0.3 µM); Not satisfied
Cc1c2c(nn1C)CSCc1cc(n(C)n1)CSc1cc(c3ccccc3c1)OCCCc1c(C(=O)O)n(C)c3c-2c(Cl)ccc13 [AZD5991] + C=CCn1c(=O)c2cnc(Nc3ccc(N4CCN(C)CC4)cc3)nc2n1-c1cccc(C(C)(C)O)n1 [AZD1775] (first compound max 1 µM, partner max 1 µM); Not satisfied
Cc1cc2ncnn2cc1Nc1ncc2c(n1)n(C1CCOCC1)c(=O)n2C [AZD7648] + C=CCn1c(=O)c2cnc(Nc3ccc(N4CCN(C)CC4)cc3)nc2n1-c1cccc(C(C)(C)O)n1 [AZD1775] (first compound max 10 µM, partner max 1 µM); Not satisfied
CC(=O)Nc1cccc(-n2c(=O)n(C3CC3)c(=O)c3c(Nc4ccc(I)cc4F)n(C)c(=O)c(C)c32)c1 [Trametinib] + Cc1nc(-c2cn3c(n2)-c2ccc(-c4cnn(C(C)(C)C(N)=O)c4)cc2OCC3)n(C(C)C)n1 [Taselisib] (first compound max 1 µM, 7x7, partner max 10 µM); Satisfied
C=CCn1c(=O)c2cnc(Nc3ccc(N4CCN(C)CC4)cc3)nc2n1-c1cccc(C(C)(C)O)n1 [AZD1775] + O=C(c1cc(Cc2n[nH]c(=O)c3ccccc23)ccc1F)N1CCN(C(=O)C2CC2)CC1 [Olaparib] (first compound max 1 µM, partner max 10 µM); Satisfied
C[C@@H]1COCCN1c1cc(C2([S@](C)(=N)=O)CC2)nc(-c2ccnc3[nH]ccc23)n1 [AZD6738] + C1CC(C1)(C(=O)[O-])C(=O)[O-].N.N.[Pt+2] [Carboplatin] (first compound max 10 µM, 7x7, partner max 10 µM); Not satisfied

In the following, a different compound is considered.
Request: Please tell me: is the compound CN(CCO)CC[C@H](CSc1ccccc1)Nc1ccc(S(=O)(=O)NC(=O)c2ccc(N3CCC([C@@H](O)c4ccccc4-c4ccc(Cl)cc4)CC3)cc2)cc1S(=O)(=O)C(F)(F)F [AZD4320] + Nc1ccn([C@@H]2O[C@H](CO)[C@@H](O)C2(F)F)c(=O)n1 [Gemcitabine] (first compound max 1 µM, 7x7, partner max 0.3 µM) at or over -0.005 in terms of Bliss excess?
Result: Satisfied

---

Test system: NCI-H2373 (Mesothelioma)
Assay: combination Emax (second highest fraction inhibited in the dose matrix, 72 h); higher = more inhibition; extreme values may be limits of the assay
MEASUREMENT TYPE: combination Emax
// no unit, no text: just the number

Cc1c2c(nn1C)CSCc1cc(n(C)n1)CSc1cc(c3ccccc3c1)OCCCc1c(C(=O)O)n(C)c3c-2c(Cl)ccc13 [AZD5991] + C1CN(CCC1(C(=O)N[C@@H](CCO)C2=CC=C(C=C2)Cl)N)C3=NC=NC4=C3C=CN4 [Capivasertib] (first compound max 1 µM, 7x7, partner max 3 µM); 0.42

Alright, here's another compound for you.
Request: Tell me combination Emax of Cc1c2c(nn1C)CSCc1cc(n(C)n1)CSc1cc(c3ccccc3c1)OCCCc1c(C(=O)O)n(C)c3c-2c(Cl)ccc13 [AZD5991] + Cc1cc2ncnn2cc1Nc1ncc2c(n1)n(C1CCOCC1)c(=O)n2C [AZD7648] (first compound max 1 µM, 7x7, partner max 10 µM) when tested on NCI-H2373 (Mesothelioma).
Result: 0.409

---

Tested on: UACC-257 (Melanoma)
Experiment: combination Emax (second highest fraction inhibited in the dose matrix, 72 h); higher = more inhibition; extreme values may be limits of the assay
Values of combination Emax greater than or equal to 0.3 map to 1; values below map to 0.

CC(=O)c1c(C)c2cnc(Nc3ccc(N4CCNCC4)cn3)nc2n(C2CCCC2)c1=O [Palbociclib] + CN(CC[C@H](CSC1=CC=CC=C1)NC2=C(C=C(C=C2)S(=O)(=O)NC(=O)C3=CC=C(C=C3)N4CCC(CC4)[C@H](C5=CC=CC=C5C6=CC=C(C=C6)Cl)O)S(=O)(=O)C(F)(F)F)CCO [AZD4320] (first compound max 10 µM, 7x7, partner max 1 µM); 0

Request: # check: combination Emax of C[C@@H](c1ccc2nccn2c1)n1nnc2ncc(-c3cnn(C)c3)nc21 [Savolitinib] + CC1(C)CCC(CN2CCN(c3ccc(C(=O)NS(=O)(=O)c4ccc(NCC5CCOCC5)c([N+](=O)[O-])c4)c(Oc4cnc5[nH]ccc5c4)c3)CC2)=C(c2ccc(Cl)cc2)C1 [Venetoclax] (first compound max 1 µM, 7x7, partner max 1 µM) is greater than or equal to 0.3
Result: 0

Request: Entry COc1nnc2ccc(N3CCC(c4ccc(OCCN5CCN(C)C(=O)[C@H]5C)cc4)CC3)nn12 [AZD5153] + CCN(CCO)CCCOc1ccc2c(Nc3cc(CC(=O)Nc4cccc(F)c4)[nH]n3)ncnc2c1 [AZD2811] (first compound max 1 µM, 7x7, partner max 1 µM) : is its combination Emax no less than 0.3?
Result: 1

Request: Decide: combination Emax of Cc1c2c(nn1C)CSCc1cc(n(C)n1)CSc1cc(c3ccccc3c1)OCCCc1c(C(=O)O)n(C)c3c-2c(Cl)ccc13 [AZD5991] + C1CN(CCC1(C(=O)N[C@@H](CCO)C2=CC=C(C=C2)Cl)N)C3=NC=NC4=C3C=CN4 [Capivasertib] (first compound max 1 µM, 7x7, partner max 3 µM) >= 0.3?
Result: 0

Request: API: above_or_equal(metric=combination Emax, cutoff=0.3) for item CC(=O)c1c(C)c2cnc(Nc3ccc(N4CCNCC4)cn3)nc2n(C2CCCC2)c1=O [Palbociclib] + Cn1cnc2c(F)c(Nc3ccc(Br)cc3Cl)c(C(=O)NOCCO)cc21 [Selumetinib] (first compound max 10 µM, 7x7, partner max 10 µM)
Result: 1
